z-score for assorted compounds
- assay_notes: basal RPMI8226 mitochondrial membrane potential changes, profiling panel, cell-based, JC-1 fluorescence, 24 h, 100 nL compound (AID 1169); further: test concentration not given here
- measurement_setup: RPMI8226 myeloma, JC-1 mitochondrial potential fluorescence, higher = more signal
Just the number, please, no unit attached.

Sample answers from the record:
Dear colleague, I am looking for the recorded z-score of the following compound: COc1cc2c(cc1OC)CN(C(=O)[C@@H]1[C@H]3C(=O)O[C@H](c4ccccc4)[C@H](c4ccccc4)N3[C@H](c3ccc(O)cc3)[C@@]13C(=O)Nc1ccc(C#CCCO)cc13)CC2
-0.294

# get_value(readout='z-score', item= COC(=O)C1=CC(CCCO)=CC(c2ccc(CN3CCCC3)cc2)N(Cc2cc3c(cc2Br)OCO3)C=C1C(=O)OC (configuration not stated) )
0.144

Quick one: z-score for CCOC(=O)C[C@H]1[C@H](OC(=O)c2ccc(-c3ccccc3)cc2)[C@@H](NC(=O)CC(C)C)c2cc(OCCCO)ccc2N1C(=O)c1ccccc1 ?
0.983

Endpoint output: z-score of CC(C)C[C@@H]1NC(=O)[C@H]2C[C@@H](C(=O)NCCCCCN)[C@@H](c3cccc(OCCO)c3)N2C1=O . Value?
-0.336

I would be grateful if you could share the reported z-score for COC(=O)C(CC#Cc1ccc2c(c1)[C@]1(C(=O)N2)[C@H](c2ccc(O)cc2)N2[C@H](c3ccccc3)[C@H](c3ccccc3)OC(=O)[C@H]2[C@@H]1C(=O)N1CCCCCCC1)C(=O)OC .
-0.799

Further cases:
Consider the compound [N-]=[N+]=Nc1ccccc1C[C@]1(C(=O)O)N=C(c2ccc(OCCCO)cc2)O[C@H]1c1ccccc1N=[N+]=[N-] and give its measured z-score.
-0.739

GET /values?readout=z-score&item= COCC1C2CC[C@H]3C(OCc4ccc(OC)cc4)OC[C@]4(C)[C@H]3C2=C(CN4C(=O)OC(C)(C)C)[C@H](C)C1COC (some centres not stated)
-0.205

====

- System: Neuregulin-1 EGF-like domain
- assay_notes: binders of neuregulin-1 EGF-like domain, primary screen, biochemical, small-molecule microarray, 635 nm fluorescence (AID 1081);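 further: binding of the protein to compounds printed on small-molecule microarray slides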
- measurement_setup: small-molecule microarray binding, higher = more signal
Assign class by composite z-score: not lower than 1 means True; lower than 1 means False.

Solved entries:
Assess whether reported composite z-score for COc1ccc(C(O)C2C=CC3C(=O)N(c4ccccc4)C(=O)C3N2Nc2ccc(C(C)C)cc2)c2ccccc12 (stereo not drawn) sits at 1 or higher.
True

Does the reported composite z-score for CC(C)C(=C=CC[C@@H](O)c1cccc(OCCO)c1)C[C@@H](O)c1ccccn1 fall at or above the 1 mark?
False

Please tell me: is the molecule C=CCNC(=O)[C@@H]1[C@H]2C(=O)O[C@H](c3ccccc3)[C@H](c3ccccc3)N2[C@H](c2ccc(O)cc2)[C@@]12C(=O)N(C(=O)OCCOC)c1ccc(C#CCCO)cc12 at or over 1 in terms of composite z-score?
True

Others:
Decide: composite z-score of CC(=O)n1cc(C(O)C2C=CC3C(=O)N(c4ccccc4)C(=O)C3N2Nc2ccc(C(C)C)cc2)c2ccccc21 (stereo not drawn) >= 1?
True

Say whether COc1ccc([Si](C)(C)[C@@H]2[C@@H](CC(=O)N3Cc4ccccc4C[C@H]3CO)O[C@]3(C(=O)N(c4ccccc4)c4ccccc43)[C@H]2C)cc1 shows composite z-score of 1 or more.
True

Determine whether this molecule has composite z-score no lower than 1: COCC(=C=CC[C@H](O)c1cccc(OCCO)c1)C[C@H](O)COCc1ccccc1
True

Exam item: decide whether the reported composite z-score for CC(C)C[C@@H]1NC(=O)[C@@H]2C[C@H](C(=O)NCCCCCC[N+](C)(C)C)[C@H](c3cccc(OCCO)c3)N2C1=O is at least 1.
True

Determine whether measured composite z-score meets or exceeds 1 for Cc1nc2cc(Br)ccc2c(=O)n1Cc1cccc(O)c1
True

Is it the case that CO[C@H]1O[C@H](CO)[C@@H](OC(=O)c2ccc(Br)cc2)[C@@H]2OC(=O)[C@H](Cc3ccccc3)C/C=C/C[C@@H](Cc3ccccc3)C(=O)O[C@@H]12 has composite z-score reaching or exceeding 1?
False

API: above_or_equal(metric=composite z-score, cutoff=1) for item NC(=O)[C@@H]1[C@H]2C(=O)O[C@H](c3ccccc3)[C@H](c3ccccc3)N2[C@H](c2ccc(OCCO)cc2)[C@@]12C(=O)Nc1ccc(C#CCCO)cc12
True

For this molecule, is measured composite z-score 1 or higher? COC(=O)C(CC#Cc1ccc2c(c1)[C@]1(C(=O)N2)[C@H](C(=O)Nc2nc3ccccc3s2)[C@H]2C(=O)O[C@H](c3ccccc3)[C@H](c3ccccc3)N2[C@@H]1c1ccc(OCCO)cc1)C(=O)OC
True

Hi team, for C=C[C@H](C)[C@H](OC(=O)Nc1ccc(OC)cc1)c1ccc(OCCO)cc1 , is the recorded composite z-score at or above 1?
False

# bool: composite z-score of Cc1ccc(C(C)CC(O)C2C=CC3C(=O)N(c4ccccc4)C(=O)C3N2Nc2ccc(C#N)cc2)o1 (stereo not drawn) >= 1
True

Check the entry O=C1C[C@@](C(=O)NCC(F)(F)F)(c2ccc([N+](=O)[O-])cc2)[C@@H](c2ccc(CO)cc2)N1CC12CC3CC(CC(C3)C1)C2 : does composite z-score equal or exceed 1?
True

Could you please find out whether COC(=O)[C@@]1(Cc2ccc(F)cc2)[C@H]2c3cc(C(=O)N4CCCC4)n(CC4CC4)c3C[C@H]2CN1C(=O)c1ccccc1 has composite z-score that meets 1 or exceeds it?
True

Hi, just wondering whether NC(=O)[C@H]1[C@@H]2C(=O)O[C@@H](c3ccccc3)[C@@H](c3ccccc3)N2[C@@H](c2ccc(O)cc2)[C@]12C(=O)Nc1ccccc12 shows composite z-score of 1 or higher.
False

Values compiled from PubChem BioAssay.
